subject.of.test: T1, recombinant human HER2 extracellular domain protein (human, UniProt P04626 23-652)
T1 construct: range 23-652; Range is printed for the immunogen/panning protein; also called ErbB2; recombinant HER2 protein
test.description: BLI, Protein A capture
property: pKd
// pKd here means minus log10 of the molar concentration (mol/L)

Hu2117HK-Mu36 (Fc fusion, name in Kabat numbering, scFv-hIgG1 Fc; not shown: human IgG1 Fc) scFv: EVQLVESGGGLVQPGGSLRLSCAASGFTYSSYGMSWVRQAPGKGLEWVASISGGGSYTKYPDSVKGRFTISRDNSKNTLYLQMNSLRAEDTAVYYCARDYAGFFDVWGQGTLVTVSSGGGGSGGGGSGGGGSDIQMTQSPSSLSASVGDRVTITCRSSQSLVHSNGNTYLHWYQQKPGKAPKLLIYKVSNRFSGVPSRFSGSGSGTDFTLTISSLQPEDFATYFCMQSTHVPYTFGQGTKVEIK	7.50
Hu2117HK (Fc fusion, Hu2117-H1 + Hu2117-K1; also called hu2117-H1K1; humanized single-chain antibody Hu2117HK; not shown: human IgG1 Fc) scFv: EVQLVESGGGLVQPGGSLRLSCAASGFTYSSYGMSWVRQAPGKGLEWVASISGGGSYTKYPDSVKGRFTISRDNSKNTLYLQMNSLRAEDTAVYYCARDYAGFFDVWGQGTLVTVSSGGGGSGGGGSGGGGSDIQMTQSPSSLSASVGDRVTITCRSSQSLVHSNGNTYLHWYQQKPGKAPKLLIYKVSNRFSGVPSRFSGSGSGTDFTLTISSLQPEDFATYFCSQSTHVPYTFGQGTKVEIK	7.94

With those in mind, consider the next binder.
Exercise: State the recorded pKd for this entry: Hu2117HK-Mu12 (Fc fusion, scFv-hIgG1 Fc; not shown: human IgG1 Fc) scFv: EVQLVESGGGLVQPGGSLRLSCAASGFTYSSYGMSWVRQAPGKGLEWVASISGGGSYTKYPDSVKGRFTISRDNSKNTLYLQMNSLRAEDTAVYYCARDYAGFFDVWGQGTLVTVSSGGGGSGGGGSGGGGSDIQMTQSPSSLSASVGDRVTITCRSSQSLVHSNGNTYLHWYQQKPGKAPKLLIYKVSNRPSGVPSRFSGSGSGTDFTLTISSLQPEDFATYFCSQSTHVPYTFGQGTKVEIK
Key: 8.19
